assay: Duration of action where maximum inhibition of LTB4 formation is achieved at 10 mg/kg po; type: functional, organism-based; set-up: dose 10 mg/kg; details: Canis lupus familiaris
property: Duration

Consider the worked cases shown below.
- sampleSmiles: "COc1ccc2c(c1)C=C(CN(O)C(N)=O)CO2"
  Duration: "> 6 h"
- sampleSmiles: "NC(=O)N(O)CC1=Cc2cc(OCc3ccc(C(F)(F)F)cc3)ccc2OC1"
  Duration: "> 6 h"
- sampleSmiles: "NC(=O)N(O)CC1=Cc2cc(Br)ccc2OC1"
  Duration: "3.8 h"

Field request: Duration | item: NC(=O)N(O)CC1=Cc2cc(OCc3ccccc3)ccc2OC1 > 6 h

----------
Duration for assorted compounds
test: Duration of action where maximum inhibition of LTB4 formation is achieved at 1 mg/kg iv; format: functional, organism-based; parameters: dose 1 mg/kg; details: Canis lupus familiaris
Quick reminder: number only, in h, skip the unit.

- compound: "CCCNC(=O)N(O)CC1=Cc2cc(Oc3ccccc3)ccc2OC1"
  Duration / h: 8.1
- compound: "CCNC(=O)N(O)CC1=Cc2cc(Oc3ccccc3)ccc2OC1"
  Duration / h: 5.1
- compound: "COc1ccc2c(c1)C=C(CN(O)C(N)=O)CO2"
  Duration / h: 1.2
- compound: "CC1Oc2ccc(Oc3ccccc3)cc2C=C1CN(O)C(N)=O (centres undefined)"
  Duration / h: 5
- compound: "CNC(=O)N(O)CC1=Cc2cc(Oc3ccc(F)cc3)ccc2OC1"
  Duration / h: 20
- compound: "NC(=O)N(O)CC1=Cc2cc(OCc3ccc(C(F)(F)F)cc3)ccc2OC1"
  Duration / h: 3

What value of Duration has been reported for the following compound? NC(=O)N(O)CC1=Cc2cc(OCc3ccccc3)ccc2OC1 19

Could you do the same for CNC(=O)N(O)CC1=Cc2cc(Oc3ccccc3)ccc2OC1 , please? 8.4

Follow-up entry: NC(=O)N(O)CC1COc2ccc(Oc3ccccc3)cc2C1 (centres undefined) 7.4

----------
target: Polyunsaturated fatty acid 5-lipoxygenase (Homo sapiens) (UniProt P09917); test: Ex vivo inhibition of LTB-4 determined by measurement of A-23187-stimulated LTB-4 production in dog blood at 1 mg/kg iv; type: functional, organism-based; parameters: dose 1 mg/kg
Sequence (P09917 whole entry): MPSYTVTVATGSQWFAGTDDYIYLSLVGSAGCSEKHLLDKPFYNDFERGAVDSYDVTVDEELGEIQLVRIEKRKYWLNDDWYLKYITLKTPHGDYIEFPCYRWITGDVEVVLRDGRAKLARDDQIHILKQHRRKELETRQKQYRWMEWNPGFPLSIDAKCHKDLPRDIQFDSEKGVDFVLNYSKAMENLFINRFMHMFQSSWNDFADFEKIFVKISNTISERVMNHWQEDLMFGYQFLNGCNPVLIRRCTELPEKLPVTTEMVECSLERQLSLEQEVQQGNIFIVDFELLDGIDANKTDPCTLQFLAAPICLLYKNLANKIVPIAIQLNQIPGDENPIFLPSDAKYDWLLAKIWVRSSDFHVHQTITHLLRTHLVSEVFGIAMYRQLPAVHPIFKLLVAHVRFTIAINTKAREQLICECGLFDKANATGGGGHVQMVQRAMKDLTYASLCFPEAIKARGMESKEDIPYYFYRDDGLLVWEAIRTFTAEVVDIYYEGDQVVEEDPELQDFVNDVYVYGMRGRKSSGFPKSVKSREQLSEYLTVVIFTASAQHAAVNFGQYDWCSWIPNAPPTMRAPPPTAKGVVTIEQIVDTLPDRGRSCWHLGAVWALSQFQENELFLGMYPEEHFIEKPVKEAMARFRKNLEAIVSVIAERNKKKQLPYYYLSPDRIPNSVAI
property: inhibition

Here's what some known entries look like.
- compound: "CCCNC(=O)N(O)CC1=Cc2cc(Oc3ccccc3)ccc2OC1"
  inhibition: "> 95%"
- compound: "NC(=O)N(O)CC1COc2ccc(Oc3ccccc3)cc2C1 (stereo not drawn)"
  inhibition: "> 95%"

Continue with the next compound.
Which measured inhibition belongs to NC(=O)N(O)CC1=Cc2cc(OCc3ccc(C(F)(F)F)cc3)ccc2OC1 , tested on Polyunsaturated fatty acid 5-lipoxygenase (Homo sapiens) (UniProt P09917)? 82%

----------
Listed below: inhibition values for each entry.
molecular target: Polyunsaturated fatty acid 5-lipoxygenase (Homo sapiens); assay: Ex vivo inhibition of LTB4 production by measurement of A-23187-stimulated LTB-4 production in dog blood at 1 mg/kg po.; type: functional, organism-based; design: dose 1 mg/kg; details: Canis lupus familiaris, target entry is the homologue from another species

# count of solved cases: 2
- molecule: "NC(=O)N(O)CC1COc2ccc(Oc3ccccc3)cc2C1 (stereo not drawn)"
  property: "inhibition"
  result: "> 95%"
- molecule: "NC(=O)N(O)CC1=Cc2cc(Oc3ccccc3)ccc2OC1"
  property: "inhibition"
  result: "> 95%"

We next turn to a different molecule, shown below.
# input molecule: CC1Oc2ccc(Oc3ccccc3)cc2C=C1CN(O)C(N)=O (stereo not drawn) ; wanted: its inhibition > 95%
